system: LTB4-mediated CD11b upregulation on human neutrophils; assay: LTB4-mediated CD11b upregulation on human neutrophils (flow cytometry, anti-CD11b-FITC); type: cell-based; settings: isolated human neutrophils, 3 nM LTB4; semicolons separate individual assay determinations; hydrochloride hydrate; read-out: CD11b/CD18 IC50
Counter-ions that a name gives are not always drawn.
REPORTED PROPERTY: pIC50
pIC50 is a log-scale quantity: -log10 of the concentration expressed in molar.

Hello, please tell me recorded pIC50 for this one: CCCc1c(OCCCOc2cc(O)c(C3CCCN3)cc2CC)cccc1Oc1ccccc1C(=O)O (stereo not shown) [Example 16, hydrochloride hydrate]
6.08
